# credit: the supplement of paper PMC7877785

# self-splicing fitness (ln) per entry
Test: self-splicing fitness, log relative to wild type (ln ratio); higher = more splicing; Tetrahymena group I intron in knt gene, E. coli kanamycin selection, DiMSum; sequences stand for … in CUCUCU…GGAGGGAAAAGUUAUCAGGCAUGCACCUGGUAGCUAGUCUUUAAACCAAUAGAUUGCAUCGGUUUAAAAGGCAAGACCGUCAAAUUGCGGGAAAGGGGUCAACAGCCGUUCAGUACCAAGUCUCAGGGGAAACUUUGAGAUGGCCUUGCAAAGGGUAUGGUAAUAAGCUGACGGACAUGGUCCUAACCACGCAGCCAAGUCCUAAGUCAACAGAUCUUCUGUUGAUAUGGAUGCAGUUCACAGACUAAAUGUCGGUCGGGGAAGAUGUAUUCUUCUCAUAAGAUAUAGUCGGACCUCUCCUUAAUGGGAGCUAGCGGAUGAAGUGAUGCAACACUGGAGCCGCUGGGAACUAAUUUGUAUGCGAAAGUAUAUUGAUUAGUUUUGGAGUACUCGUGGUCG;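 note: selection with 25 µg/mL kanamycin versus none on LB agar overnight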
Details: 30 °C
# answer = number (no unit)

| Sequence Content | self-splicing fitness (ln) |
| --- | --- |
| ACCUAGCAAUAUUACGACUU | -0.837 |
| CAACAGCAAUAUUACGUGGG | -3.25 |
| CGUAAGCAAUAUUACGCACG | -1.76 |
| UCGAAGCAAUAUUACGUAAC | -2.1 |
| GCGGAGCAAUAUUACGUGUU | -2.9 |

Give the reported value of self-splicing fitness (ln) for this record: "UUAGAGCAAUAUUACGAGCG"
-0.362

Please look at this sequence and report its self-splicing fitness (ln): "CCACAGCAAUAUUACGCUGU"
-4.34

Using known records, supply self-splicing fitness (ln) for "GAGGAGCAAUAUUACGAAGC"
-1.73

Tell us which self-splicing fitness (ln) value is on record for "CUAAAGCAAUAUUACGUUCC"
-3.89

---

Experiment: self-splicing fitness, log relative to wild type (ln ratio); higher = more splicing; Tetrahymena group I intron in knt gene, E. coli kanamycin selection, DiMSum; sequences stand for … in CUCUCU…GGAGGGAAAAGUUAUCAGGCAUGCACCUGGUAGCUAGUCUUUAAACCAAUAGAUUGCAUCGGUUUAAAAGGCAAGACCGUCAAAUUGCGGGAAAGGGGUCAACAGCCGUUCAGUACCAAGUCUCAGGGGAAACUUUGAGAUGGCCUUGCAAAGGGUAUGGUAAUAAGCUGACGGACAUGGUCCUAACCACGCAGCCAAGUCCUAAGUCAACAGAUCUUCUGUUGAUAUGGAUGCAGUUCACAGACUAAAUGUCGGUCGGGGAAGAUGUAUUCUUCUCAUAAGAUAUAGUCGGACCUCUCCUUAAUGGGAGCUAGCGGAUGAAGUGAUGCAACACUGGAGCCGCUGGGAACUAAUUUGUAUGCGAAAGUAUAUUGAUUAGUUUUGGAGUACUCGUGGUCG
Settings: 37 °C
Reported Endpoint: self-splicing fitness (ln)
Answer with a number only.

Check out these entries, answers already filled in.
| Sequence Content | self-splicing fitness (ln) |
| --- | --- |
| GCUUAGCAAUAUUACGGUGA | -1.75 |
| CGACAGCAAUAUUACGAAUC | -2.71 |
| CGAGAGCAAUAUUACGGGCU | -2.18 |
| UUUCAGCAAUAUUACGUCUA | 0.101 |
| ACUGAGCAAUAUUACGCGAG | -1.11 |
| ACAAAGCAAUAUUACGUACU | -0.0261 |
| AGUGAGCAAUAUUACGUAAA | -1.3 |
| ACAUAGCAAUAUUACGGCUG | -0.366 |

Input "UUUGAGCAAUAUUACGUCAG" , output reported self-splicing fitness (ln).
-1.46

Output measured self-splicing fitness (ln) for this item: "UCGUAGCAAUAUUACGUAGU"
-1.99

Please report self-splicing fitness (ln) for the following sequence: "ACAUAGCAAUAUUACGUCUU"
-0.302

Note down self-splicing fitness (ln) recorded for "GAAUAGCAAUAUUACGACUG"
-1.43

Consider the sequence "CGGUAGCAAUAUUACGAACC" . State its measured self-splicing fitness (ln).
-1.2

Fill in self-splicing fitness (ln) for record "UAUGAGCAAUAUUACGGGUA"
-2.05

Entry "AGGAAGCAAUAUUACGACUA" needs its self-splicing fitness (ln) filled in; supply it.
-0.351

Annotate the sequence "AAGAAGCAAUAUUACGUGCG" with its measured self-splicing fitness (ln).
-0.0711

---

Readings of self-splicing fitness (ln) for the listed sequences
Assay: self-splicing fitness, log relative to wild type (ln ratio); higher = more splicing; Tetrahymena group I intron in knt gene, E. coli kanamycin selection, DiMSum; sequences stand for … in CUCUCU…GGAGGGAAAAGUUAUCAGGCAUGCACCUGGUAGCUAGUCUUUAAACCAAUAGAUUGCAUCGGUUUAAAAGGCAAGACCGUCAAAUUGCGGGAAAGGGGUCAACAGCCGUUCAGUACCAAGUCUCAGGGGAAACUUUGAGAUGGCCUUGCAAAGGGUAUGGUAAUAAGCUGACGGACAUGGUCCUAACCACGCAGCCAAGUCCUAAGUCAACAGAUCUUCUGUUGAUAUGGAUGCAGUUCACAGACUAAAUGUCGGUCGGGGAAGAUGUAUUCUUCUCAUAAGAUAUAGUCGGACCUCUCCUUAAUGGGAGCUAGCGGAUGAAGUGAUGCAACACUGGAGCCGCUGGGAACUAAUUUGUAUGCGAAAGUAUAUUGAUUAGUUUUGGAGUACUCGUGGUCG
Conditions: 30 °C
Hey, just send me the number, nothing else.

Known self-splicing fitness (ln) results, listed for orientation:
| Sequence Content | self-splicing fitness (ln) |
| --- | --- |
| UCCUAGCAAUAUUACGUUCC | -2.61 |
| CCCGAGCAAUAUUACGUAAA | -3.27 |
| GUCGAGCAAUAUUACGCAGU | -2.71 |
| ACGAAGCAAUAUUACGCCUG | -0.445 |
| UUUGAGCAAUAUUACGGCUC | -2.38 |

Consider the record given below.
Specify reported self-splicing fitness (ln) for the sequence shown: "GCAUAGCAAUAUUACGACCU"
-0.833

---

Experiment: self-splicing fitness, log relative to wild type (ln ratio); higher = more splicing; Tetrahymena group I intron in knt gene, E. coli kanamycin selection, DiMSum; sequences stand for … in CUCUCU…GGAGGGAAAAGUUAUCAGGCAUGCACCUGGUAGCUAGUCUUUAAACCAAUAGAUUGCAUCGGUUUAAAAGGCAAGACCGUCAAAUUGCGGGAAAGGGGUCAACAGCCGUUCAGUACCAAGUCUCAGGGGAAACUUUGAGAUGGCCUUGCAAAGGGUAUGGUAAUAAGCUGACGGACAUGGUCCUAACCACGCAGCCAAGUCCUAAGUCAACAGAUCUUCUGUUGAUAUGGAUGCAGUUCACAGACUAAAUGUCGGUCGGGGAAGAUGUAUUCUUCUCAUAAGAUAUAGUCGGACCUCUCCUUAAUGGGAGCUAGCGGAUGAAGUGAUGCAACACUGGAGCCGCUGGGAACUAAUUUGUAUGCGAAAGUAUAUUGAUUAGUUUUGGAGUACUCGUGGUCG
Conditions: 30 °C
# label = T if self-splicing fitness (ln) >= -3 else F

Solved cases (4 shown):
| Sequence Content | Class Assignment |
| --- | --- |
| UGCUAGCAAUAUUACGGCUU | T |
| CACGAGCAAUAUUACGAGCC | F |
| CCACAGCAAUAUUACGGUUA | F |
| UGUUAGCAAUAUUACGUCCU | T |

Does the sequence "UCCAAGCAAUAUUACGCGCC" have recorded self-splicing fitness (ln) that is -3 or more?
F

Evaluate "CUAGAGCAAUAUUACGAAUC" : self-splicing fitness (ln) at minimum -3?
F

Is self-splicing fitness (ln) for "CUGUAGCAAUAUUACGUUAA" at or above -3?
F

Hello, I need to know if "UGUGAGCAAUAUUACGAUCA" has measured self-splicing fitness (ln) not below -3. Thanks!
T

Evaluate "GACUAGCAAUAUUACGCCGU" : self-splicing fitness (ln) at minimum -3?
T

Could you please find out whether "CGCUAGCAAUAUUACGCCUG" has self-splicing fitness (ln) that meets -3 or exceeds it?
T

Identify whether the reported self-splicing fitness (ln) of the following sequence is -3 or greater: "AGCAAGCAAUAUUACGAUCC"
T

Hi team, for "GUCGAGCAAUAUUACGCAGA" , is the recorded self-splicing fitness (ln) at or above -3?
T

Please tell me: is the sequence "ACCGAGCAAUAUUACGACGA" at or over -3 in terms of self-splicing fitness (ln)?
T

Could you please find out whether "CUGCAGCAAUAUUACGGUCC" has self-splicing fitness (ln) that meets -3 or exceeds it?
F

For this sequence, is measured self-splicing fitness (ln) -3 or higher? "CCUCAGCAAUAUUACGAACA"
F

Is reported self-splicing fitness (ln) greater than or equal to -3 here: "UUAAAGCAAUAUUACGUCUU"
T
